Target: SCD5 (Homo sapiens, UniProt Q86SK9)
Construct: host or cells: S. cerevisiae ole1Δ strain (W303 pdr1Δ pdr3Δ background), plasmid pRS316 with TDH3 promoter and CYC1 terminator
Sequence (Q86SK9 1-330): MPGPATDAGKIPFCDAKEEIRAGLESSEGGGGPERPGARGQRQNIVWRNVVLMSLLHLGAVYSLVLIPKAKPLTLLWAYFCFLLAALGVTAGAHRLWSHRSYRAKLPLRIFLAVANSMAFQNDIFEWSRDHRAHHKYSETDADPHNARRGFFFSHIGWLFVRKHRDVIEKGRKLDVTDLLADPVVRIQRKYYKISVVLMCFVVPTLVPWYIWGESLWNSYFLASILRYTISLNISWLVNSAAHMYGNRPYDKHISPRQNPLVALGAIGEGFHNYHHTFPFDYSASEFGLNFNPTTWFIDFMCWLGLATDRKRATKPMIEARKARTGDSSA
Assay: Growth inhibition of humanized yeast strain expressing SCD5 as sole desaturase
Type: cell-based
Conditions: humanized yeast strain expressing SCD5
pIC50: −log10 of the molar value.
# key: entry, value: pIC50

Study these solved cases before continuing.
• CC(C)n1ncc2cc(-c3noc(C4CCN(C(=O)CNC(=O)c5ccccc5)CC4)n3)ccc21 = < 4.35
• CC(C)n1ncc2ccc(-c3noc(C4=C(F)CN(C(=O)OC(C)(C)C)CC4)n3)cc21 = 5.38
• Cc1nn(C)c2cc(-c3noc(C4CCN(C(=O)N[C@@H]5C[C@@H]5c5ccccc5)CC4)n3)ccc12 = < 4.35

So what's the measured pIC50 for this one? "Cc1nn(C)c2cc(-c3noc(C4CCN(C(=O)[C@H]5CC(=O)N(c6cccc(C#N)c6)C5)CC4)n3)ccc12"
< 4.35

Source listed as patent US11873298B2.
